TARGET_OF_ASSAY: CCK-B receptors (CHO-CCK) (Homo sapiens, UniProt P32239)
Construct: expressed in transfected cells; host or cells: CHO (CHO-CCK model cells)
Sequence (P32239 whole entry): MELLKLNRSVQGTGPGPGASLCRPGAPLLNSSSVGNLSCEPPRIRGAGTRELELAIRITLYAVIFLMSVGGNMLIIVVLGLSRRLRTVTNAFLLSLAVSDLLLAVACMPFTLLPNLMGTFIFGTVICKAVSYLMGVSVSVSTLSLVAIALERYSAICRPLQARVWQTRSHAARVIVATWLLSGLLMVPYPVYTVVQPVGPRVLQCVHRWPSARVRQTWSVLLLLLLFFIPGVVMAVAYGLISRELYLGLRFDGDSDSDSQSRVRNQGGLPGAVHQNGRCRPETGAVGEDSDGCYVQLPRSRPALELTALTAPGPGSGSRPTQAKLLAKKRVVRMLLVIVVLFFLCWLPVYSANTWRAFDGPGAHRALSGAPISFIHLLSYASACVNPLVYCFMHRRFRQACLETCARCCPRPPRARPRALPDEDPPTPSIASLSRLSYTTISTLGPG
ASSAY_TEXT: Calcium flux (Fluo-8) agonist test on CHO-CCK model cells
Type: cell-based
CONDITIONS: compound at 10 μM; percentage of signal of 20 nM CCK8 alone
Values of Agonistic Activity (%) at 10 μM strictly less than 10% map to satisfied, and values of at least 10% map to not satisfied.

API: query returns whether the compound falls strictly under 10% in Agonistic Activity (%) at 10 μM. Query: CSCC[C@H](NC(=O)[C@H](N)Cc1c[nH]c2ccccc12)C(=O)N[C@@H](CC(=O)OCCNc1cccc2c(O)cccc12)C(=O)N[C@@H](Cc1ccc(Cl)cc1)C(N)=O [HT-103, D-Trp-Met-Asp(EDANS)-Phe(4-Cl)-NH2]
satisfied

API: query returns whether the compound falls strictly under 10% in Agonistic Activity (%) at 10 μM. Query: C[S+]([O-])CC[C@H](NC(=O)[C@H](N)Cc1c[nH]c2ccccc12)C(=O)N[C@@H](CC(=O)O)C(=O)N[C@@H](Cc1ccc([N+](=O)[O-])cc1)C(N)=O (stereo partly shown)
not satisfied

API: query returns whether the compound falls strictly under 10% in Agonistic Activity (%) at 10 μM. Query: CS(=O)(=O)CC[C@H](NC(=O)[C@H](N)Cc1c[nH]c2ccccc12)C(=O)N[C@@H](CC(=O)OCCNc1cccc2c(O)cccc12)C(=O)N[C@@H](Cc1cccc(F)c1)C(N)=O [HT-163, D-Trp-Met(O2)-Asp(EDANS)-Phe(3-F)-NH2]
satisfied

API: query returns whether the compound falls strictly under 10% in Agonistic Activity (%) at 10 μM. Query: C[S+]([O-])CC[C@H](NC(=O)[C@H](N)Cc1c[nH]c2ccccc12)C(=O)N[C@@H](CC(=O)OCCNc1cccc2c(O)cccc12)C(=O)N[C@@H](Cc1ccccc1[N+](=O)[O-])C(N)=O (stereo partly drawn) [HT-143, D-Trp-Met(O)-Asp(EDANS)-Phe(2-NO2)-NH2]
satisfied

API: query returns whether the compound falls strictly under 10% in Agonistic Activity (%) at 10 μM. Query: [2H]c1ccc(C[C@H](NC(=O)[C@H](CC(=O)OC)NC(=O)[C@H](CCS(C)(=O)=O)NC(=O)[C@H](N)Cc2c[nH]c3ccccc23)C(N)=O)cc1
satisfied

API: query returns whether the compound falls strictly under 10% in Agonistic Activity (%) at 10 μM. Query: C[S+]([O-])CC[C@H](NC(=O)[C@H](N)Cc1c[nH]c2ccccc12)C(=O)N[C@@H](CC(=O)O)C(=O)N[C@@H](Cc1ccc(F)cc1)C(N)=O (stereo partly shown)
not satisfied

API: query returns whether the compound falls strictly under 10% in Agonistic Activity (%) at 10 μM. Query: C[S+]([O-])CC[C@H](NC(=O)[C@H](N)Cc1c[nH]c2ccccc12)C(=O)N[C@@H](CC(=O)O)C(=O)N[C@@H](Cc1ccccc1)C(N)=O (stereo partly shown)
not satisfied

API: query returns whether the compound falls strictly under 10% in Agonistic Activity (%) at 10 μM. Query: C[S+]([O-])CC[C@H](NC(=O)[C@H](N)Cc1c[nH]c2ccccc12)C(=O)N[C@@H](CC(=O)O)C(=O)N[C@@H](Cc1ccc(Cl)cc1)C(N)=O (stereo partly shown)
not satisfied

API: query returns whether the compound falls strictly under 10% in Agonistic Activity (%) at 10 μM. Query: CS(=O)(=O)CC[C@H](NC(=O)[C@H](N)Cc1c[nH]c2ccccc12)C(=O)N[C@@H](CC(=O)O)C(=O)N[C@@H](Cc1cc(F)c(F)c(F)c1)C(N)=O
not satisfied

API: query returns whether the compound falls strictly under 10% in Agonistic Activity (%) at 10 μM. Query: C[S+]([O-])CC[C@H](NC(=O)[C@H](N)Cc1c[nH]c2ccccc12)C(=O)N[C@@H](CC(=O)O)C(=O)N[C@@H](Cc1cccc(Cl)c1)C(N)=O (stereo partly shown)
not satisfied

API: query returns whether the compound falls strictly under 10% in Agonistic Activity (%) at 10 μM. Query: COC(=O)C[C@H](NC(=O)[C@H](CC[S+](C)[O-])NC(=O)[C@H](N)Cc1c[nH]c2ccccc12)C(=O)N[C@@H](Cc1ccc([N+](=O)[O-])cc1)C(N)=O (stereo partly shown)
satisfied

API: query returns whether the compound falls strictly under 10% in Agonistic Activity (%) at 10 μM. Query: COC(=O)C[C@H](NC(=O)[C@H](CC[S+](C)[O-])NC(=O)[C@H](N)Cc1c[nH]c2ccccc12)C(=O)N[C@@H](Cc1ccccc1[N+](=O)[O-])C(N)=O (stereo partly shown)
satisfied

API: query returns whether the compound falls strictly under 10% in Agonistic Activity (%) at 10 μM. Query: CS(=O)(=O)CC[C@H](NC(=O)[C@H](N)Cc1c[nH]c2ccccc12)C(=O)N[C@@H](CC(=O)O)C(=O)N[C@@H](Cc1ccc(Cl)cc1)C(N)=O
not satisfied

API: query returns whether the compound falls strictly under 10% in Agonistic Activity (%) at 10 μM. Query: COC(=O)C[C@H](NC(=O)[C@H](CC[S+](C)[O-])NC(=O)[C@H](N)Cc1c[nH]c2ccccc12)C(=O)N[C@@H](Cc1cc(F)cc(F)c1)C(N)=O (stereo partly shown)
satisfied

API: query returns whether the compound falls strictly under 10% in Agonistic Activity (%) at 10 μM. Query: COC(=O)C[C@H](NC(=O)[C@H](CCS(C)(=O)=O)NC(=O)[C@H](N)Cc1c[nH]c2ccccc12)C(=O)N[C@@H](Cc1cc(F)c(F)c(F)c1)C(N)=O
satisfied

API: query returns whether the compound falls strictly under 10% in Agonistic Activity (%) at 10 μM. Query: COC(=O)C[C@H](NC(=O)[C@H](CCSC)NC(=O)[C@H](N)Cc1c[nH]c2ccccc12)C(=O)N[C@@H](Cc1cccc(I)c1)C(N)=O
not satisfied

These measurements were taken from patent US20240415918A1.
